- experimental system: T1, human PD-L1-his (human, UniProt Q9NZQ7 19-238)
- T1 construct: also called hPD-L1-his; human His-PD-L1
- T1 sequence (Q9NZQ7 19-238 limits assumed): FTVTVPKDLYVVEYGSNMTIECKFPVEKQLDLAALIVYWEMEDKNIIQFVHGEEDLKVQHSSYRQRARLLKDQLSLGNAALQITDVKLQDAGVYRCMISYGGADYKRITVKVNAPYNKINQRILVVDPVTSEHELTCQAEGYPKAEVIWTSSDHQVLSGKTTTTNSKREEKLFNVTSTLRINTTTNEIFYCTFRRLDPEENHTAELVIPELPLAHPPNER
- test name: SPR, Biacore, full kinetics, antigen 100-1.5625 nM
readout kind: pKd
Please note pKd is a logarithmic value: minus log10 of concentration in mol/L. Answer with that number alone.

INSERT INTO assay_data (binder, endpoint_result) VALUES
  ('93-VH-6 (VHH, Humanized anti-PD-L1 single domain antibody; the assays imply a human Fc part that is not described; also called PD-L1 Ab (93-VH6); 93-VH6 sdAb) VHH: EVQLVESGGGLVQPGGSLRLSCAASGFTFTFRHYVMGWFRQAPGKEREFVAAISWSGSGSYYADSVKGRFTISRDNSKNTVYLQMNSLRAEDTAVYYCAADMTTRMSQASREYDYWGQGTLVTVSS', 8.69),
  ('93-VH-9 (VHH, Humanized) VHH: EVQLVESGGGLVQPGGSLRLSCAASGRTFTFRHYVMGWFRQAPGKGLEFVAAISWSGSGSYYADSVKGRFTISRDNSKNTLYLQMNSLRAEDTAVYYCAADMTTRMSQASREYDYWGQGTLVTVSS', 8.66),
  ('93-VH-7 (VHH, Humanized) VHH: EVQLVESGGGLVQPGGSLRLSCAASGFTFTFRHYVMGWFRQAPGKGLEFVAAISWSGSGSYYADSVKGRFTISRDNSKNTLYLQMNSLRAEDTAVYYCAADMTTRMSQASREYDYWGQGTLVTVSS', 8.41);

Let us examine a further case.
*Q* Entry under review: 112-VHH5-PTM (VHH, Humanized) VHH: EVQLVESGGGLVQPGGSLRLSCAASGSIFSSGTQFSDSKIDWYRQAPGKQRDWVAGIFSTGSTIYEDSVKGRFAISRDNAKNSLYLQMNSLRAEDTAVYYCRVIGRGILAWGQGTLVTVSS . Reported pKd?
*A* 9.04
